The reported measurements were obtained from paper PMC10786891.

- target: T1, EsCas13d, nuclease-dead (Eubacterium siraeum, UniProt B0MS50, R295A;H300A;R849A;H854A)
- T1 sequence: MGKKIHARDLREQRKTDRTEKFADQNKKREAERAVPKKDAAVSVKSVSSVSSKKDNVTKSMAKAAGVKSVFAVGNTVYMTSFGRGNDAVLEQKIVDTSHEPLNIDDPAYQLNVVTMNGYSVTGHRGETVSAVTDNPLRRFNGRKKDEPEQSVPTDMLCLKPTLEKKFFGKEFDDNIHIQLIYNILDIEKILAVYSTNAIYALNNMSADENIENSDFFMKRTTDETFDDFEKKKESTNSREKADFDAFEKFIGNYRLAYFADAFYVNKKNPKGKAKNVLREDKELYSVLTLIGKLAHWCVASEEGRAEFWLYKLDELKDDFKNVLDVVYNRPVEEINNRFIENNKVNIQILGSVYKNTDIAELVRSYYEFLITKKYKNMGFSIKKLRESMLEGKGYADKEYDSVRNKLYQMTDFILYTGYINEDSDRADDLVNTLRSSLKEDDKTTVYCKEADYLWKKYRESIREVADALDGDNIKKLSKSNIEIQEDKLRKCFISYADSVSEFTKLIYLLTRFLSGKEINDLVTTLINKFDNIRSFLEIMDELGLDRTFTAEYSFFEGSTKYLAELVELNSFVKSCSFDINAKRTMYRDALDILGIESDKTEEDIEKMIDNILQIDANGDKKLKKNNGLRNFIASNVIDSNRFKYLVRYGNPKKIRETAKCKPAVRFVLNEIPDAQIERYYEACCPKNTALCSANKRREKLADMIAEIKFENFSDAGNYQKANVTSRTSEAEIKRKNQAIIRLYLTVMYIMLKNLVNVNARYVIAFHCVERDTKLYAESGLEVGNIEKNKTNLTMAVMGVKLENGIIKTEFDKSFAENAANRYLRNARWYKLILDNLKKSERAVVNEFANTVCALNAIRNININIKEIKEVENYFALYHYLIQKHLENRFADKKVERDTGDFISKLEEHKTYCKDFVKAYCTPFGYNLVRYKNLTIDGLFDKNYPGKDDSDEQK
- assay_name: crRNA (strand 1, pre-loaded); Mg2+; 40 mM Tris-HCl pH 7.5, 150 mM NaCl, 6 mM MgCl2, 1 mM DTT, 0.1% Tween-20, 0.2 mg/ml BSA; 25 C; 10 min per concentration, then washed
- condition: tags: His6-TwinStrep-SUMO cleaved; N-terminal SNAP kept (SNAP-Surface 488); label: 3' end held by stalled T7 RNA polymerase
quantity_kind: Kd (nM)
Kindly answer with a numeric value in nM, unit omitted.

Consider the following illustrative entries.
* target 2 MT 5'PFS GAU 3'PFS UAA (mixed) RNA 1: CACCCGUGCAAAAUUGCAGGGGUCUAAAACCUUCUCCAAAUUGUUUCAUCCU RNA 2: GGGAAUGGAUCCACAUCUACGAAUUCGAUAGGAUGAAACAAUUUGGAGAAGUAAAGAUCGGAAGAGCACACGU | 12
* target 1 G15A,G17A (mixed) RNA 1: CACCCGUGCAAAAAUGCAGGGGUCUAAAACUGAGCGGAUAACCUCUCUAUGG RNA 2: GGGAAUGGAUCCACAUCUACGAAUUCGUACCAUAAAAAGGUUAUCCGCUCACCGAGAUCGGAAGAGCACACGU | 80
* target 1 MT 5'PFS GGG 3'PFS UCA (mixed) RNA 1: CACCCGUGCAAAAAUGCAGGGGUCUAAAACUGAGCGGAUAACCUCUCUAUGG RNA 2: GGGAAUGGAUCCACAUCUACGAAUUCGGGCCAUAGAGAGGUUAUCCGCUCAUCAAGAUCGGAAGAGCACACGU | 18.6
* target 1 insC 3' of 20,insC 3' of 13 (mixed) RNA 1: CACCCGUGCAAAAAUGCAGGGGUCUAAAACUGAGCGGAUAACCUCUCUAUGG RNA 2: GGGAAUGGAUCCACAUCUACGAAUUCGUACCACUAGAGAGCGUUAUCCGCUCACCGAGAUCGGAAGAGCACACGU | 7.2
* target 2 MT 5'PFS UGG 3'PFS ACA (mixed) RNA 1: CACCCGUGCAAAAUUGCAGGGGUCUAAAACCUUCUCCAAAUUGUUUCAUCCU RNA 2: GGGAAUGGAUCCACAUCUACGAAUUCUGGAGGAUGAAACAAUUUGGAGAAGACAAGAUCGGAAGAGCACACGU | 6

[Q] Report Kd for target 1 U19A,A20U (mixed) RNA 1: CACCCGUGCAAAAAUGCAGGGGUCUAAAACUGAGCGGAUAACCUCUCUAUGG RNA 2: GGGAAUGGAUCCACAUCUACGAAUUCGUACCUAAGAGAGGUUAUCCGCUCACCGAGAUCGGAAGAGCACACGU please.
[A] 47

[Q] Report Kd for target 2 MT 5'PFS AAU 3'PFS UAC (mixed) RNA 1: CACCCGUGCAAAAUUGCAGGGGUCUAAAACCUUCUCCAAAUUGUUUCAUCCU RNA 2: GGGAAUGGAUCCACAUCUACGAAUUCAAUAGGAUGAAACAAUUUGGAGAAGUACAGAUCGGAAGAGCACACGU please.
[A] 9.2

[Q] Report Kd for target 1 MT 5'PFS GUG 3'PFS GCA (mixed) RNA 1: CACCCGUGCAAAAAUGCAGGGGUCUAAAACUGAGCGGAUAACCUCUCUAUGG RNA 2: GGGAAUGGAUCCACAUCUACGAAUUCGUGCCAUAGAGAGGUUAUCCGCUCAGCAAGAUCGGAAGAGCACACGU please.
[A] 26

[Q] Report Kd for target 2 MT 5'PFS UAU 3'PFS AAG (mixed) RNA 1: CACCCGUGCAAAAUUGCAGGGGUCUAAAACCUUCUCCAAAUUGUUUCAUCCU RNA 2: GGGAAUGGAUCCACAUCUACGAAUUCUAUAGGAUGAAACAAUUUGGAGAAGAAGAGAUCGGAAGAGCACACGU please.
[A] 20.9

[Q] Report Kd for target 1 insG 3' of 19,insU 3' of 5 (mixed) RNA 1: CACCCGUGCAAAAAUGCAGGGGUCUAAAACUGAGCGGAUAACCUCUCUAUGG RNA 2: GGGAAUGGAUCCACAUCUACGAAUUCGUACCAUGAGAGAGGUUAUCCGUCUCACCGAGAUCGGAAGAGCACACGU please.
[A] 86

[Q] Report Kd for target 1 insG 3' of 21,insG 3' of 4 (mixed) RNA 1: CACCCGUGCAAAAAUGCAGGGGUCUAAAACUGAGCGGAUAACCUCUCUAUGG RNA 2: GGGAAUGGAUCCACAUCUACGAAUUCGUACCGAUAGAGAGGUUAUCCGCGUCACCGAGAUCGGAAGAGCACACGU please.
[A] 51

[Q] Report Kd for target 1 MT 5'PFS GGA 3'PFS CUA (mixed) RNA 1: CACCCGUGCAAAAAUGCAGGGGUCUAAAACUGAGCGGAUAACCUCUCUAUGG RNA 2: GGGAAUGGAUCCACAUCUACGAAUUCGGACCAUAGAGAGGUUAUCCGCUCACUAAGAUCGGAAGAGCACACGU please.
[A] 27

[Q] Report Kd for target 3 insA 3' of 22,insC 3' of 4 (mixed) RNA 1: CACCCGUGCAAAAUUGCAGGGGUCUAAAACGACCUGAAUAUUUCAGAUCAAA RNA 2: GGGAAUGGAUCCACAUCUACGAAUUCGUUUAUUGAUCUGAAAUAUUCAGCGUCUGCAGAUCGGAAGAGCACACGU please.
[A] 19.4

[Q] Report Kd for target 1 MT 5'PFS GCG 3'PFS UAA (mixed) RNA 1: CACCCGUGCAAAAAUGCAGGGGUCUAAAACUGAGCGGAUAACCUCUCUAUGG RNA 2: GGGAAUGGAUCCACAUCUACGAAUUCGCGCCAUAGAGAGGUUAUCCGCUCAUAAAGAUCGGAAGAGCACACGU please.
[A] 10.6

[Q] Report Kd for target 3 insU 3' of 22,insU 3' of 11 (mixed) RNA 1: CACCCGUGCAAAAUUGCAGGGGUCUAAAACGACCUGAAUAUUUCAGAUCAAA RNA 2: GGGAAUGGAUCCACAUCUACGAAUUCGUUUUUUGAUCUGAAAUUAUUCAGGUCUGCAGAUCGGAAGAGCACACGU please.
[A] 62
